I'd appreciate it if you could supply IC50 values for the items below.
Tested on: ERK1/2 (Thr202/Tyr204) phosphorylation in KYSE520 cells
test.summary: Cellular Phospho-p44/42 MAPK (Erk1/2) (Thr202/Tyr204) assay, In-Cell Western
Assay type: cell-based
run.parameters: Homo sapiens, KYSE-520; KYSE520 cells, 1 hour incubation, pERK signal normalized to GAPDH; single assay or mean of multiple assays; read-out: Biological Example 2 IC50
Structures can show the parent of a compound that is named as a salt.
Please respond with the number in nM and leave the unit unwritten.

*Q* # get_value(readout= IC50, system= ERK1/2 (Thr202/Tyr204) phosphorylation in KYSE520 cells) for `Cc1nccc(Sc2cnc(N3CCC4(CC3)Cc3ccccc3[C@H]4N)nn2)c1C`
*A* 6

*Q* And the next one, `CNc1nccc(Sc2cnc(N3CCC4(CC3)Cc3ncccc3[C@H]4N)nn2)c1Cl` ?
*A* 11

*Q* And the next one, `Cc1nc(N2CCC3(CC2)CO[C@@H](C)[C@H]3N)nnc1Sc1cccc(Cl)c1Cl` ?
*A* 1030

*Q* And the next one, `Cc1nc2c(s1)[C@@H](N)C1(CCN(c3ncc(Sc4ccnc(N)c4Cl)nn3)CC1)C2` ?
*A* 6

*Q* And the next one, `Nc1nccc(Sc2cnc(N3CCC4(CC3)Cc3c(Cl)cccc3[C@@H]4N)nn2)c1Cl` ?
*A* 541

*Q* And the next one, `CNc1nccc(Sc2cnc(N3CCC4(CC3)Cc3ccccc3[C@H]4N)nn2)c1Cl` ?
*A* 4

*Q* And the next one, Nc1nccc(Sc2cnc(N3CCC4(CC3)Cc3nc(Cl)sc3C4N)nn2)c1Cl (centres unmarked) ?
*A* 4

*Q* And the next one, `N[C@@H]1c2ccccc2CC12CCN(c1ncc(-c3ccccc3Cl)nn1)CC2` ?
*A* 424

*Q* And the next one, `N[C@@H]1c2ccccc2CC12CCN(c1ncc(Oc3cccc4cnccc34)nn1)CC2` ?
*A* 1140

*Q* And the next one, `C[C@@H]1OCC2(CCN(c3ncc(Sc4ccnc5[nH]ccc45)nn3)CC2)[C@@H]1N` ?
*A* 48

*Q* And the next one, `Nc1c(Cl)c(Sc2cnc(N3CCC4(CC3)Cc3ccccc3[C@H]4N)nn2)cc[n+]1[O-]` ?
*A* 9

*Q* And the next one, CC1(N)CCCN(c2ncc(Sc3ccnc(N)c3Cl)nn2)CC1 (centres unmarked) ?
*A* 687

*Q* And the next one, `Cc1nccc(Sc2cnc(N3CCC4(CC3)Cc3ccccc3[C@H]4N)nn2)c1Cl` ?
*A* 7

*Q* And the next one, Nc1nccc(Sc2cnc(N3CCC4(CC3)Cc3ncccc3[C@@H]4N)nn2)c1Cl [Example 16, trihydrochloride] ?
*A* 49

*Q* And the next one, CC1(N)CCCN(c2ncc(Sc3cccc(Cl)c3Cl)nn2)CC1 (centres unmarked) ?
*A* 1970

*Q* And the next one, `Cc1nc(N2CCC3(CC2)CO[C@@H](C)[C@H]3N)nnc1Sc1ccnc(N)c1Cl` ?
*A* 519

*Q* And the next one, `COc1ccc2c(c1)[C@@H](N)C1(CCN(c3ncc(Sc4ccnc(N)c4Cl)nn3)CC1)C2` ?
*A* 2
